target: human PD-L1 (huPD-L1), on stably transduced CHO cells (human) (UniProt Q9NZQ7); assay: flow cytometry; ratio of MFI on CHO/huPD-L1 cells to MFI on Jurkat (CD28) cells
Sequence (Q9NZQ7 19-290): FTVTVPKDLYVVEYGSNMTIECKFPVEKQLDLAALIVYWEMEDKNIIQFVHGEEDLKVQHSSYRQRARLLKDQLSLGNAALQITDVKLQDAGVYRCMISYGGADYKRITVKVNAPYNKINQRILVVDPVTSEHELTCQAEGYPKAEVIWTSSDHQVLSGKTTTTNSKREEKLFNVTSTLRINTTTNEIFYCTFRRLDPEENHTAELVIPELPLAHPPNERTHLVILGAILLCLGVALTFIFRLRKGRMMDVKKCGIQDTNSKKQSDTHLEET
Please use Satisfied for Ratio of PDL1:CD28 under 10 and Not satisfied for everything else, ties included.

Binder	Assigned class
variant CD80 IgV-Fc E35D/M47L/A71G/L85M (Fc fusion) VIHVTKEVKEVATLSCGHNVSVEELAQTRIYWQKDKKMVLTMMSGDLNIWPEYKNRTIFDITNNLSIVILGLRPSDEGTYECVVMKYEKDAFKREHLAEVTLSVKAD	Not satisfied

Request: Say whether its Ratio of PDL1:CD28 is strictly beneath 10. Entry: variant CD80 IgV-Fc D46V/M47I/A71G (Fc fusion) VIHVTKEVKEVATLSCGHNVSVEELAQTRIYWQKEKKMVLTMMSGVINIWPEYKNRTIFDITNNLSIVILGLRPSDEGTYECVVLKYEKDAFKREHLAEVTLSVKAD
Response: Satisfied

Request: Say whether its Ratio of PDL1:CD28 is strictly beneath 10. Entry: variant CD80 IgV-Fc H18Y/E35D/M47L/A71G/A91S (Fc fusion) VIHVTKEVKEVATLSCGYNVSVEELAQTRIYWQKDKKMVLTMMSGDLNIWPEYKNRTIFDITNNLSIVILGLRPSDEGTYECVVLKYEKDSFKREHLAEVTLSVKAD
Response: Not satisfied

Request: Say whether its Ratio of PDL1:CD28 is strictly beneath 10. Entry: variant CD80 IgV-Fc E35D/D46E/L85M (Fc fusion) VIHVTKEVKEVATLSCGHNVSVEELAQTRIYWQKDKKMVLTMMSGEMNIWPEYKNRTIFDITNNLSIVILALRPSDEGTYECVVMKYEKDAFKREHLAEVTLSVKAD
Response: Not satisfied

Request: Say whether its Ratio of PDL1:CD28 is strictly beneath 10. Entry: variant CD80 IgV-Fc E35D/M47V (Fc fusion) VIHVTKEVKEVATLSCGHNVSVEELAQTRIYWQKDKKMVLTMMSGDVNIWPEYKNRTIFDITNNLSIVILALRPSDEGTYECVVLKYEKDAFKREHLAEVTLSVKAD
Response: Satisfied

Request: Say whether its Ratio of PDL1:CD28 is strictly beneath 10. Entry: variant CD80 IgV-Fc E35D/D46E/M47I (Fc fusion) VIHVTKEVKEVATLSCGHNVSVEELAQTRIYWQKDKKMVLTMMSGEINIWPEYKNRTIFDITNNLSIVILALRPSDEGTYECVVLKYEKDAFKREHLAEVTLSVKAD
Response: Satisfied

Request: Say whether its Ratio of PDL1:CD28 is strictly beneath 10. Entry: variant CD80 IgV-Fc Q27L/E35D/M47V/I61V/L85M (Fc fusion) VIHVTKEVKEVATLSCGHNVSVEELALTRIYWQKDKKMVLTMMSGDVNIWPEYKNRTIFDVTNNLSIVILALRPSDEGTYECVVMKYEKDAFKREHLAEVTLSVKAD
Response: Not satisfied

Request: Say whether its Ratio of PDL1:CD28 is strictly beneath 10. Entry: variant CD80 IgV-Fc M47I/A71G (Fc fusion) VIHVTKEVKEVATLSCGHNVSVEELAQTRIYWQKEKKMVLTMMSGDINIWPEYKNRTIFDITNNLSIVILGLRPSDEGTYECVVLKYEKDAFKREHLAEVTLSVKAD
Response: Satisfied
